Test: Heat resistance test of laminated glass
Type: physicochemical
Conditions: 200 hours at 100° C., absorbance integrated 400 to 900 nm
Entries annotated with measured ΔE (%) Heat resistance
Note: unit % is implicit; provide only the numeric part.

{"Compound": "[O]=[V+2].c1ccc(OCCOCCCCc2ccc(CCCCOCCOc3ccccc3)c3c2-c2nc-3nc3[n-]c(nc4nc(nc5[n-]c(n2)c2c(CCCCOCCOc6ccccc6)ccc(CCCCOCCOc6ccccc6)c52)-c2c(CCCCOCCOc5ccccc5)ccc(CCCCOCCOc5ccccc5)c2-4)c2c(CCCCOCCOc4ccccc4)ccc(CCCCOCCOc4ccccc4)c32)cc1 [Specific Example (1)-38]", "Unit tag": "%", "ΔE (%) Heat resistance": 2}
{"Compound": "COc1cccc(OCCCCc2ccc(CCCCOc3cccc(OC)c3)c3c2-c2nc-3nc3[n-]c(nc4nc(nc5[n-]c(n2)c2c(CCCCOc6cccc(OC)c6)ccc(CCCCOc6cccc(OC)c6)c52)-c2c(CCCCOc5cccc(OC)c5)ccc(CCCCOc5cccc(OC)c5)c2-4)c2c(CCCCOc4cccc(OC)c4)ccc(CCCCOc4cccc(OC)c4)c32)c1.[O]=[V+2] [Specific Example (1)-39]", "Unit tag": "%", "ΔE (%) Heat resistance": 3}

From here, focus on the item given below.
Given COc1cccc(OCCCCc2ccc(CCCCOc3cccc(OC)c3)c3c2-c2nc-3nc3[n-]c(nc4nc(nc5[n-]c(n2)c2c(CCCCOc6cccc(OC)c6)ccc(CCCCOc6cccc(OC)c6)c52)-c2c(CCCCOc5cccc(OC)c5)ccc(CCCCOc5cccc(OC)c5)c2-4)c2c(CCCCOc4cccc(OC)c4)ccc(CCCCOc4cccc(OC)c4)c32)c1.[Cu+2] [Specific Example (1)-40] , respond with its ΔE (%) Heat resistance.
2

* * *

Assay: Heat resistance test of laminated glass
Type: physicochemical
Conditions: 200 hours at 100° C., absorbance integrated 400 to 900 nm
Observed property: ΔE (%) Heat resistance
Numbers only here, please. The scale is %.

Check out these entries, answers already filled in.
{"Molecule": "COc1cccc(OC)c1OCCCCc1ccc(CCCCOc2c(OC)cccc2OC)c2c1-c1nc-2nc2[n-]c(nc3nc(nc4[n-]c(n1)c1c(CCCCOc5c(OC)cccc5OC)ccc(CCCCOc5c(OC)cccc5OC)c41)-c1c(CCCCOc4c(OC)cccc4OC)ccc(CCCCOc4c(OC)cccc4OC)c1-3)c1c(CCCCOc3c(OC)cccc3OC)ccc(CCCCOc3c(OC)cccc3OC)c21.[Cu+2]", "ΔE (%) Heat resistance": 4}
{"Molecule": "Fc1ccccc1OCCCCc1ccc(CCCCOc2ccccc2F)c2c1-c1nc-2nc2[n-]c(nc3nc(nc4[n-]c(n1)c1c(CCCCOc5ccccc5F)ccc(CCCCOc5ccccc5F)c41)-c1c(CCCCOc4ccccc4F)ccc(CCCCOc4ccccc4F)c1-3)c1c(CCCCOc3ccccc3F)ccc(CCCCOc3ccccc3F)c21.[O]=[V+2]", "ΔE (%) Heat resistance": 4}

Return value of ΔE (%) Heat resistance for input COCCCCc1ccc(CCCCOC)c2c1-c1nc-2nc2[n-]c(nc3nc(nc4[n-]c(n1)c1c(CCCCOC)ccc(CCCCOC)c41)-c1c(CCCCOC)ccc(CCCCOC)c1-3)c1c(CCCCOC)ccc(CCCCOC)c21.[O]=[V+2] , no commentary.
6

State, in one line, measured ΔE (%) Heat resistance of CC(C)(C)c1ccc(OCCCCc2ccc(CCCCOc3ccc(C(C)(C)C)cc3)c3c2-c2nc-3nc3[n-]c(nc4nc(nc5[n-]c(n2)c2c(CCCCOc6ccc(C(C)(C)C)cc6)ccc(CCCCOc6ccc(C(C)(C)C)cc6)c52)-c2c(CCCCOc5ccc(C(C)(C)C)cc5)ccc(CCCCOc5ccc(C(C)(C)C)cc5)c2-4)c2c(CCCCOc4ccc(C(C)(C)C)cc4)ccc(CCCCOc4ccc(C(C)(C)C)cc4)c32)cc1.[O]=[V+2]
3

Report measured ΔE (%) Heat resistance; entry is [O]=[V+2].c1ccc(OCCCCc2ccc(CCCCOc3ccccc3)c3c2-c2nc-3nc3[n-]c(nc4nc(nc5[n-]c(n2)c2c(CCCCOc6ccccc6)ccc(CCCCOc6ccccc6)c52)-c2c(CCCCOc5ccccc5)ccc(CCCCOc5ccccc5)c2-4)c2c(CCCCOc4ccccc4)ccc(CCCCOc4ccccc4)c32)cc1
3

Provide one value: measured ΔE (%) Heat resistance of COCCCCc1ccc(CCCCOC)c2c1-c1nc-2nc2[n-]c(nc3nc(nc4[n-]c(n1)c1c(CCCCOC)ccc(CCCCOC)c41)-c1c(CCCCOC)ccc(CCCCOC)c1-3)c1c(CCCCOC)ccc(CCCCOC)c21.[Cu+2]
2

Fill in ΔE (%) Heat resistance for record COCc1ccc(COC)c2c1-c1nc-2nc2[n-]c(nc3nc(nc4[n-]c(n1)c1c(COC)ccc(COC)c41)-c1c(COC)ccc(COC)c1-3)c1c(COC)ccc(COC)c21.[O]=[V+2] [Comparative Example Compound (a), reference compound]
35

Item CCOCCCCc1ccc(CCCCOCC)c2c1-c1nc-2nc2[n-]c(nc3nc(nc4[n-]c(n1)c1c(CCCCOCC)ccc(CCCCOCC)c41)-c1c(CCCCOCC)ccc(CCCCOCC)c1-3)c1c(CCCCOCC)ccc(CCCCOCC)c21.[O]=[V+2] : provide ΔE (%) Heat resistance
3
